Here the recorded IC50 for cell lines DU145 is given for each entry.
Test system: DU145
Test: three day MTT cytotoxicity assay, DU145
Type: cell-based, human
Conditions: DU145, 72 hours

COMPOUND	TESTED_SYSTEM	READOUT_RELATION	IC50 for cell lines DU145 (µg/mL)
C=C(C)[C@@H]1CC[C@]2(C(=O)O)CC[C@]3(C)[C@H](CC[C@@H]4[C@@]5(C)Cc6c([nH]c7c(Cl)cccc67)C(C)(C)[C@@H]5CC[C@]43C)[C@@H]12	DU145	=	11.66
C=C(C)[C@@H]1CC[C@]2(C(=O)NC3CC3)CC[C@]3(C)C(CCC4[C@@]5(C)Cc6c([nH]c7ccc(Cl)cc67)C(C)(C)C5CC[C@]43C)C12 (some centres unmarked)	DU145	>	20
C=C(C)[C@@H]1CC[C@]2(C(=O)O)CC[C@]3(C)C(CCC4[C@@]5(C)Cc6c(n(C)c7ccccc67)C(C)(C)C5CC[C@]43C)C12 (some centres unmarked)	DU145	≥	20
C=C(C)[C@@H]1CC[C@]2(C(=O)Nc3nccs3)CC[C@]3(C)C(CCC4[C@@]5(C)Cc6c([nH]c7ccc(Cl)cc67)C(C)(C)C5CC[C@]43C)C12 (some centres unmarked)	DU145	>	20
C=C(C)[C@@H]1CC[C@]2(C(=O)NCC(=O)O)CC[C@]3(C)C(CCC4[C@@]5(C)Cc6c([nH]c7ccc(Cl)cc67)C(C)(C)C5CC[C@]43C)C12 (some centres unmarked)	DU145	=	10.32

----------
System: SW620
Experiment: three day MTT cytotoxicity assay, SW620
Format: cell-based, human
Settings: SW620, 72 hours
The label is met for IC50 for cell lines SW620 below 6 µg/mL and not met for IC50 for cell lines SW620 equal to or exceeding 6 µg/mL.

COMPOUND	TESTED_SYSTEM	DISCRETE_LABEL
C=C(C)[C@@H]1CC[C@]2(C(=O)OCc3ccccc3)CC[C@]3(C)C(CCC4[C@@]5(C)Cc6c([nH]c7ccccc67)C(C)(C)C5CC[C@]43C)C12 (some centres unmarked)	SW620	not met
C=C(C)[C@@H]1CC[C@]2(C(=O)Nc3nccs3)CC[C@]3(C)C(CCC4[C@@]5(C)Cc6c([nH]c7ccc(Cl)cc67)C(C)(C)C5CC[C@]43C)C12 (some centres unmarked)	SW620	not met
C=C(C)[C@@H]1CC[C@]2(C(=O)NCC(=O)O)CC[C@]3(C)C(CCC4[C@@]5(C)Cc6c([nH]c7ccc(Cl)cc67)C(C)(C)C5CC[C@]43C)C12 (some centres unmarked)	SW620	not met
C=C(C)[C@@H]1CC[C@]2(C(=O)NCC(=O)O)CC[C@]3(C)[C@H](CC[C@@H]4[C@@]5(C)Cc6c([nH]c7ccccc67)C(C)(C)[C@@H]5CC[C@]43C)[C@@H]12	SW620	not met
C=C(C)[C@@H]1CC[C@]2(C(=O)O)CC[C@]3(C)C(CCC4[C@@]5(C)Cc6c(oc7ccccc67)C(C)(C)C5CC[C@]43C)C12 (some centres unmarked)	SW620	not met
CC(C)[C@@H]1CC[C@]2(C(=O)OCc3ccccc3)CC[C@]3(C)C(CCC4[C@@]5(C)Cc6c([nH]c7ccccc67)C(C)(C)C5CC[C@]43C)C12 (some centres unmarked)	SW620	not met
C=C(C)[C@@H]1CC[C@]2(C(=O)O)CC[C@]3(C)C(CCC4[C@@]5(C)Cc6c([nH]c7cc(Cl)cc(Cl)c67)C(C)(C)C5CC[C@]43C)C12 (some centres unmarked)	SW620	not met
C#CCNC(=O)[C@]12CC[C@@H](C(=C)C)C1C1CCC3[C@@]4(C)Cc5c([nH]c6ccc(Cl)cc56)C(C)(C)C4CC[C@@]3(C)[C@]1(C)CC2 (some centres unmarked)	SW620	not met
CC(C)[C@@H]1CC[C@]2(C(=O)O)CC[C@]3(C)C(CCC4[C@@]5(C)Cc6c([nH]c7ccccc67)C(C)(C)C5CC[C@]43C)C12 (some centres unmarked)	SW620	not met
C=C(C)[C@@H]1CC[C@]2(C(=O)O)CC[C@]3(C)[C@H](CC[C@@H]4[C@@]5(C)Cc6c([nH]c7ccccc67)C(C)(C)[C@@H]5CC[C@]43C)[C@@H]12	SW620	met
C=CCOC(=O)[C@]12CC[C@@H](C(=C)C)C1C1CCC3[C@@]4(C)Cc5c([nH]c6ccccc56)C(C)(C)C4CC[C@@]3(C)[C@]1(C)CC2 (some centres unmarked)	SW620	not met
C=C(C)[C@@H]1CC[C@]2(C(=O)O)CC[C@]3(C)[C@H](CC[C@@H]4[C@@]5(C)Cc6c([nH]c7c(Cl)cccc67)C(C)(C)[C@@H]5CC[C@]43C)[C@@H]12	SW620	met
C=C(C)[C@@H]1CC[C@]2(C(=O)NC3CC3)CC[C@]3(C)C(CCC4[C@@]5(C)Cc6c([nH]c7ccc(Cl)cc67)C(C)(C)C5CC[C@]43C)C12 (some centres unmarked)	SW620	not met
C=C(C)[C@@H]1CC[C@]2(C(=O)O)CC[C@]3(C)C(CCC4[C@@]5(C)Cc6c([nH]c7ccc(Cl)cc67)C(C)(C)C5CC[C@]43C)C12 (some centres unmarked)	SW620	met
C=C(C)[C@@H]1CC[C@]2(C(=O)Nc3ccccn3)CC[C@]3(C)C(CCC4[C@@]5(C)Cc6c([nH]c7ccc(Cl)cc67)C(C)(C)C5CC[C@]43C)C12 (some centres unmarked)	SW620	not met
C=C(C)[C@@H]1CC[C@]2(C(=O)OCc3ccccc3)CC[C@]3(C)C(CCC4[C@@]5(C)Cc6c([nH]c7ccc(Cl)cc67)C(C)(C)C5CC[C@]43C)C12 (some centres unmarked)	SW620	not met
CC(C)[C@@H]1CC[C@]2(C(=O)O)CC[C@]3(C)[C@H](CC[C@@H]4[C@@]5(C)Cc6c([nH]c7ccc(F)cc67)C(C)(C)[C@@H]5CC[C@]43C)[C@@H]12	SW620	not met
C=C(C)[C@@H]1CC[C@]2(C(=O)O)CC[C@]3(C)[C@H](CC[C@@H]4[C@@]5(C)Cc6c([nH]c7ccc(F)cc67)C(C)(C)[C@@H]5CC[C@]43C)[C@@H]12	SW620	not met
C=C(C)[C@@H]1CC[C@]2(C(=O)O)CC[C@]3(C)[C@H](CC[C@@H]4[C@@]5(C)Cc6c([nH]c7ccc(OC)cc67)C(C)(C)[C@@H]5CC[C@]43C)[C@@H]12	SW620	not met

----------
Experiment: Pharmacokinetic study after intravenous injection
Details: male, Wistar, rat, plasma, iv, 10 mg/kg

COMPOUND	Vd (L)
C=C(C)[C@@H]1CC[C@]2(C(=O)O)CC[C@]3(C)[C@H](CC[C@@H]4[C@@]5(C)CC[C@H](O)C(C)(C)[C@@H]5CC[C@]43C)[C@@H]12 [Betulinic Acid (II), 33-hydroxy-lup-20(29)-en-28-oic acid, reference compound]	0.0416

----------
Test: in vivo
Conditions: male, Wistar, rat, iv, 10 mg/kg
MEASUREMENT_KIND: Vd (L)

COMPOUND	RESULT_UNITS	VALUE_REPORTED
CC(C)[C@@H]1CC[C@]2(C(=O)O)CC[C@]3(C)C(CCC4[C@@]5(C)CC/C(=N/Oc6ccc([N+](=O)[O-])cc6)C(C)(C)C5CC[C@]43C)C12 (stereo partly shown)	L	0.0006

----------
Tested on: A549
Assay: three day MTT cytotoxicity assay, A549
Type: cell-based, human
Conditions: Homo sapiens; A549, 72 hours, MTT; read-out: IC50 for cell lines A549

COMPOUND	IC50
CC(C)[C@@H]1CC[C@]2(C(=O)O)CC[C@]3(C)C(CCC4[C@@]5(C)CC/C(=N/Oc6ccc([N+](=O)[O-])cc6)C(C)(C)C5CC[C@]43C)C12 (stereo partly shown)	1.18 µg/mL
C=C(C)[C@@H]1CC[C@]2(C(=O)NCC(=O)OC)CC[C@]3(C)C(CCC4[C@@]5(C)Cc6c([nH]c7ccc(Cl)cc67)C(C)(C)C5CC[C@]43C)C12 (stereo partly shown)	> 20 µg/mL
C=C(C)[C@@H]1CC[C@]2(C(=O)O)CC[C@]3(C)[C@H](CC[C@@H]4[C@@]5(C)CC[C@H](O)C(C)(C)[C@@H]5CC[C@]43C)[C@@H]12 [Betulinic Acid (II), 33-hydroxy-lup-20(29)-en-28-oic acid, reference compound]	3.01 µg/mL
C=C(C)[C@@H]1CC[C@]2(C(=O)NCC(=O)OC)CC[C@]3(C)C(CCC4[C@@]5(C)Cc6c([nH]c7ccccc67)C(C)(C)C5CC[C@]43C)C12 (stereo partly shown)	> 20 µg/mL

----------
System: Miapaca
Test: three day MTT cytotoxicity assay, Miapaca
Format: cell-based, human
Settings: ratio of IC50 of NIH 3T3 cells to Miapaca
MEASUREMENT_KIND: Specific Index (SI) for cell lines Miapaca

MOLECULE	TESTED_SYSTEM	VALUE_REPORTED
CC(C)[C@@H]1CC[C@]2(C(=O)O)CC[C@]3(C)[C@H](CC[C@@H]4[C@@]5(C)Cc6c([nH]c7ccc(F)cc67)C(C)(C)[C@@H]5CC[C@]43C)[C@@H]12	Miapaca	1.737
C=C(C)[C@@H]1CC[C@]2(C(=O)NCC(=O)O)CC[C@]3(C)C(CCC4[C@@]5(C)Cc6c([nH]c7ccc(Cl)cc67)C(C)(C)C5CC[C@]43C)C12 (some centres unmarked)	Miapaca	1.047
CC(C)[C@@H]1CC[C@]2(C(=O)O)CC[C@]3(C)[C@H](CC[C@@H]4[C@@]5(C)Cc6c(oc7ccccc67)C(C)(C)[C@@H]5CC[C@]43C)[C@@H]12	Miapaca	2.273
C=C(C)[C@@H]1CC[C@]2(C(=O)O)CC[C@]3(C)[C@H](CC[C@@H]4[C@@]5(C)Cc6c([nH]c7ccccc67)C(C)(C)[C@@H]5CC[C@]43C)[C@@H]12	Miapaca	1.029
CC(C)[C@@H]1CC[C@]2(C(=O)O)CC[C@]3(C)C(CCC4[C@@]5(C)Cc6c(n(C)c7ccccc67)C(C)(C)C5CC[C@]43C)C12 (some centres unmarked)	Miapaca	>3.703
